- study_system: T1, recombinant human VEGF165 (human, UniProt P15692 27-191)
- T1 construct: mature; Isoform VEGF165 of the entry; also called hVEGF165; hVEGF
- T1 sequence (P15692 other isoform, or with tags, fused parts or gaps): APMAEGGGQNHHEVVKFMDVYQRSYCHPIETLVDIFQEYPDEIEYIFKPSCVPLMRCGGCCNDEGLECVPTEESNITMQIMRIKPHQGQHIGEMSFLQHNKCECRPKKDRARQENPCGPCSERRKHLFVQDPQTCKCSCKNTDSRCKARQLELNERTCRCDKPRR
- test_summary: Biacore SPR, VEGF immobilized, pH 5
Examples of binders with documented koff follow.
Note: unit s⁻¹ is implicit; provide only the numeric part.

input: Please report the recorded koff for 578-max (scFv, also called EP578max; #821) scFv: EIVMTQSPSTLSASVGDRVIITCQASEIIHSWLAWYQQKPGKAPKLLIYLASTLASGVPSRFSGSGSGTQFTLTISSLQPDDFATYYCQNVYLASTNGANFGQGTKLTVLGGGGGSGGGGSGGGGSGGGGSEVQLVESGGGLVQPGGSLRLSCTASGFSLTDYYYMTWVRQAPGKGLEWVGFIDPDDDPYYATWAKGRFTISRDTSKNTVYLQMNSLRAEDTAVYYCAGGDHNSGWGLDIWGQGTLVTVSS .
output: 0.000307

***
input: # koff lookup, item 511-max (scFv, also called ESBA802) scFv: EIVMTQSPSTLSASVGDRVIITCQASQSINIWLSWYQQKPGKAPKLLIYRASTLASGVPSRFSGSGSGTEFTLTISSLQPDDFATYYCQANYAYSAGYGAAFGQGTKLTVLGGGGGSGGGGSGGGGSGGGGSEVQLVESGGGLVQPGGSLRLSCTVSGFSLNTYYMNWVRQAPGKGLEWVGIIAPDDTTYYASWAKSRSTISRDTSKNTVYLQMNSLRAEDTAVYYCARSGDTTAWGADIWGQGTLVTVSS
output: 4.4e-05

input: I would be grateful if you could share the reported koff for 578-min (scFv, also called EP578 min; Protein Nr; 820) scFv: EIVMTQSPSTLSASVGDRVIITCQASEIIHSWLAWYQQKPGKAPKLLIYLASTLASGVPSRFSGSGSGAEFTLTISSLQPDDFATYYCQNVYLASTNGANFGQGTKLTVLGGGGGSGGGGSGGGGSGGGGSEVQLVESGGGLVQPGGSLRLSCAASGFSLTDYYYMTWVRQAPGKGLEWVSFIDPDDDPYYATWAKGRFTISRDNSKNTLYLQMNSLRAEDTAVYYCAKGDHNSGWGLDIWGQGTLVTVSS .
output: 0.0103

input: Find the recorded koff belonging to 511max_min (scFv, also called Protein Nr; 905) scFv: EIVMTQSPSTLSASVGDRVIITCQASQSINIWLSWYQQKPGKAPKLLIYRASTLASGVPSRFSGSGSGTEFTLTISSLQPDDFATYYCQANYAYSAGYGAAFGQGTKLTVLGGGGGSGGGGSGGGGSGGGGSEVQLVESGGGLVQPGGSLRLSCAASGFSLNTYYMNWVRQAPGKGLEWVSIIAPDDTTYYASWAKSRFTISRDNSKNTLYLQMNSLRAEDTAVYYCAKSGDTTAWGADIWGQGTLVTVSS and report it.
output: 0.000754

input: # koff lookup, item 578-max FW1.4_DHP (scFv, Tied by name only; also called Protein Nr; 960) scFv: EIVMTQSPSTLSASVGDRVIITCQASEIIHSWLAWYQQKPGKAPKLLIYLASTLASGVPSRFSGSGSGTQFTLTISSLQPDDFATYYCQNVYLASTNGANFGQGTKLTVLGGGGGSGGGGSGGGGSGGGGSEVQLVESGGGSVQPGGSLRLSCTASGFSLTDYYYMTWVRQAPGKGLEWVGFIDPDDDPYYATWAKGRFTISRDTSKNTVYLQMNSLRAEDTATYYCAGGDHNSGWGLDIWGQGTTVTVSS
output: 0.000248

src = patent US20150274820A1
